Each entry below carries its recorded recombinant UMI read abundance (log10).
Experiment: recombinant UMI read abundance after kanamycin selection (control-corrected) (log10(CPM+1)); higher = more efficient recombination; extreme values may be limits of the assay; sequences stand for … in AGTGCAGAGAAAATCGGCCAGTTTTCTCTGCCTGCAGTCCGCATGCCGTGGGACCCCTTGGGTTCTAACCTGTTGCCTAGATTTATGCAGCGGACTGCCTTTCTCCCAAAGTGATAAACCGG…AGGTTGGTTTCACT; site = the 11-nt donor;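 note: IS621 bridge recombinase in Escherichia coli cells against a fixed T5 target plasmid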
The answer should be a number; do not append a unit.

1) GTTCAAGCATGGACCGGTTTTCCCGGTAATCCGTATTTGCA (site GTTCGAGCTTG); 0
2) CCAGGAGCATGGACCGGTTTTCCCGGTAATCCGTATTTGAT (site CCAGGAGCTAT); 1.6
3) CCCGGGCCATGGACCGGTTTTCCCGGTAATCCGTATTTGCA (site CCCGGGCCTTG); 0
4) GGGGCACCATGGACCGGTTTTCCCGGTAATCCGTATTTGCA (site GAGGCACCTTG); 0.00459

As a next step, examine the sequence that follows.
Q: Query (sequence): TGCTCAGCATGGACCGGTTTTCCCGGTAATCCGTATTTGGG (site CGCTCAGCTCC) ; field requested: recombinant UMI read abundance (log10)
Result: 0.0151
